// reported % inhibition for each item listed
- Test system: human Factor 11 mRNA
- protocolDescription: Antisense inhibition of human Factor 11 in HepG2 cells by microwalk gapmers, lipofectin, 75 nM (Example 3)
- Assay type: cell-based
- assayContext: HepG2 cells, lipofectin, gapmers targeted to nucleobases 1275 to 1318 of SEQ ID NO: 1
Strand notation (5' to 3'): a small letter for the sugar, then the base; units joined by * are phosphorothioate-linked, units joined directly phosphodiester-linked; [ ] holds rarer units or linkages, { } end groups; capitals alone tell only the bases. e = 2'-O-(2-methoxyethyl) (MOE); [5mC] = 5-methylcytosine; d = 2'-deoxy (DNA)

{"columns": ["substance", "systemUnderTest", "unitDescriptor", "% inhibition"],
 "data": [
  ["417020 (antisense e[5mC]*eT*dG*dG*d[5mC]*dA*dG*d[5mC]*dG*dG*dA*d[5mC]*dG*dG*d[5mC]*eA*eT*eT*eG*eG) [compound 417020]", "human Factor 11 mRNA", "%", 84],
  ["417001 (antisense eG*eT*dG*d[5mC]*dA*d[5mC]*dA*dG*dT*dT*dT*d[5mC]*dT*dG*dG*e[5mC]*eA*eG*eG*e[5mC]) [compound 417001]", "human Factor 11 mRNA", "%", 83],
  ["416856 (antisense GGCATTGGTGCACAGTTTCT; 5-10-5 gapmer, further chemistry not given here) [compound 416856]", "human Factor 11 mRNA", "%", 95],
  ["416927 (antisense eT*eT*eG*dG*dT*dG*d[5mC]*dA*d[5mC]*dA*dG*dT*dT*dT*d[5mC]*dT*dG*eG*e[5mC]*eA) [compound 416927]", "human Factor 11 mRNA", "%", 87],
  ["417002 (antisense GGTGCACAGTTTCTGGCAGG; 2-13-5 gapmer chemistry, further chemistry not given here) [compound 417002]", "human Factor 11 mRNA", "%", 92],
  ["416944 (antisense eA*e[5mC]*eT*dG*dG*d[5mC]*dA*dG*d[5mC]*dG*dG*dA*d[5mC]*dG*dG*d[5mC]*dA*eT*eT*eG) [compound 416944]", "human Factor 11 mRNA", "%", 83],
  ["417018 (antisense eG*eG*d[5mC]*dA*dG*d[5mC]*dG*dG*dA*d[5mC]*dG*dG*d[5mC]*dA*dT*eT*eG*eG*eT*eG) [compound 417018]", "human Factor 11 mRNA", "%", 82],
  ["416935 (antisense eG*eG*eA*d[5mC]*dG*dG*d[5mC]*dA*dT*dT*dG*dG*dT*dG*d[5mC]*dA*d[5mC]*eA*eG*eT) [compound 416935]", "human Factor 11 mRNA", "%", 92],
  ["416854 (antisense eA*eT*eT*eG*eG*dT*dG*d[5mC]*dA*d[5mC]*dA*dG*dT*dT*dT*e[5mC]*eT*eG*eG*e[5mC]) [compound 416854]", "human Factor 11 mRNA", "%", 90],
  ["416939 (antisense e[5mC]*eA*eG*d[5mC]*dG*dG*dA*d[5mC]*dG*dG*d[5mC]*dA*dT*dT*dG*dG*dT*eG*e[5mC]*eA) [compound 416939]", "human Factor 11 mRNA", "%", 88],
  ["416859 (antisense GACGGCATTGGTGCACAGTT; 5-10-5 gapmer, further chemistry not given here) [compound 416859]", "human Factor 11 mRNA", "%", 90],
  ["416930 (antisense eG*e[5mC]*eA*dT*dT*dG*dG*dT*dG*d[5mC]*dA*d[5mC]*dA*dG*dT*dT*dT*e[5mC]*eT*eG) [compound 416930]", "human Factor 11 mRNA", "%", 87],
  ["416932 (antisense e[5mC]*eG*eG*d[5mC]*dA*dT*dT*dG*dG*dT*dG*d[5mC]*dA*d[5mC]*dA*dG*dT*eT*eT*e[5mC]) [compound 416932]", "human Factor 11 mRNA", "%", 92],
  ["416938 (antisense eA*eG*e[5mC]*dG*dG*dA*d[5mC]*dG*dG*d[5mC]*dA*dT*dT*dG*dG*dT*dG*e[5mC]*eA*e[5mC]) [compound 416938]", "human Factor 11 mRNA", "%", 90],
  ["417012 (antisense eG*eG*dA*d[5mC]*dG*dG*d[5mC]*dA*dT*dT*dG*dG*dT*dG*d[5mC]*eA*e[5mC]*eA*eG*eT) [compound 417012]", "human Factor 11 mRNA", "%", 72],
  ["416852 (antisense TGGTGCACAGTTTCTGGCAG; 5-10-5 gapmer, further chemistry not given here) [compound 416852]", "human Factor 11 mRNA", "%", 84],
  ["417007 (antisense eG*e[5mC]*dA*dT*dT*dG*dG*dT*dG*d[5mC]*dA*d[5mC]*dA*dG*dT*eT*eT*e[5mC]*eT*eG) [compound 417007]", "human Factor 11 mRNA", "%", 82],
  ["416858 (antisense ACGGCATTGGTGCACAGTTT; 5-10-5 gapmer, further chemistry not given here) [compound 416858]", "human Factor 11 mRNA", "%", 93],
  ["412223 (antisense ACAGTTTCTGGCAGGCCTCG; 5-10-5 MOE gapmer, further chemistry not given here) [compound 412223]", "human Factor 11 mRNA", "%", 85],
  ["417009 (antisense e[5mC]*eG*dG*d[5mC]*dA*dT*dT*dG*dG*dT*dG*d[5mC]*dA*d[5mC]*dA*eG*eT*eT*eT*e[5mC]) [compound 417009]", "human Factor 11 mRNA", "%", 85],
  ["417021 (antisense eA*e[5mC]*dT*dG*dG*d[5mC]*dA*dG*d[5mC]*dG*dG*dA*d[5mC]*dG*dG*e[5mC]*eA*eT*eT*eG) [compound 417021]", "human Factor 11 mRNA", "%", 74],
  ["416923 (antisense eT*eG*e[5mC]*dA*d[5mC]*dA*dG*dT*dT*dT*d[5mC]*dT*dG*dG*d[5mC]*dA*dG*eG*e[5mC]*e[5mC]) [compound 416923]", "human Factor 11 mRNA", "%", 96]
]}

----------
// reported percent inhibition of Factor 11 at 37.5 nM for each item listed
- System: human Factor 11 mRNA
- protocolDescription: Dose-dependent inhibition of human Factor 11 in HepG2 cells, lipofectin 9.375-75 nM (Example 4)
- Assay type: cell-based
- assayContext: 37.5 nM, relative to untreated control cells
Strand notation (5' to 3'): a small letter for the sugar, then the base; units joined by * are phosphorothioate-linked, units joined directly phosphodiester-linked; [ ] holds rarer units or linkages, { } end groups; capitals alone tell only the bases. e = 2'-O-(2-methoxyethyl) (MOE); [5mC] = 5-methylcytosine; d = 2'-deoxy (DNA)
assayReadout: percent inhibition of Factor 11 at 37.5 nM (%)

{"columns": ["substance", "unitDescriptor", "reportedValue"],
 "data": [
  ["412203 (antisense eA*eA*eT*eG*eT*d[5mC]*dT*dT*dT*dG*dT*dT*dG*d[5mC]*dA*eA*eG*e[5mC]*eG*e[5mC]) [compound 412203]", "%", 62],
  ["416925 (antisense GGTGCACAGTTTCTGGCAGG; 3-14-3 gapmer chemistry, further chemistry not given here) [compound 416925]", "%", 59],
  ["413467 (antisense eG*eG*eT*e[5mC]*e[5mC]*dA*d[5mC]*dA*dT*dA*dA*dA*dT*dG*dT*e[5mC]*eT*eT*eT*eG) [compound 413467]", "%", 62],
  ["416878 (antisense eG*eG*eT*d[5mC]*d[5mC]*dA*d[5mC]*dA*dT*dA*dA*dA*dT*dG*dT*d[5mC]*dT*eT*eT*eG) [compound 416878]", "%", 60],
  ["417003 (antisense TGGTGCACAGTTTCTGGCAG; 2-13-5 gapmer chemistry, further chemistry not given here) [compound 417003]", "%", 60],
  ["416985 (antisense eG*e[5mC]*dA*dA*d[5mC]*d[5mC]*dG*dG*dG*dA*dT*dG*dA*dT*dG*eA*eG*eT*eG*e[5mC]) [compound 416985]", "%", 47],
  ["416827 (antisense eT*eA*eT*eG*e[5mC]*d[5mC]*d[5mC]*dT*dT*d[5mC]*dA*dT*dG*dT*d[5mC]*eT*eA*eG*eG*eT) [compound 416827]", "%", 62]
]}

----------
- protocolDescription: Hematology assays in cynomolgus monkeys (Example 46)
- Format: in vivo
- assayContext: Day-5
Strand notation (5' to 3'): a small letter for the sugar, then the base; units joined by * are phosphorothioate-linked, units joined directly phosphodiester-linked; [ ] holds rarer units or linkages, { } end groups; capitals alone tell only the bases. e = 2'-O-(2-methoxyethyl) (MOE); [5mC] = 5-methylcytosine; d = 2'-deoxy (DNA)
// reported MCH for each item listed
assayReadout: MCH

{"columns": ["substance", "reportedValue"],
 "data": [
  ["ISIS 449707: 3-8-3, 4-8-4, 2-10-2, 3-10-3 or 4-10-4 MOE microwalk gapmer (Table 46) (antisense e[5mC]*eA*e[5mC]*eA*dG*dT*dT*dT*d[5mC]*dT*dG*dG*e[5mC]*eA*eG*eG)", "22.2 pg"],
  ["ISIS 449708: 3-8-3, 4-8-4, 2-10-2, 3-10-3 or 4-10-4 MOE microwalk gapmer (Table 46) (antisense eA*e[5mC]*eA*dG*dT*dT*dT*d[5mC]*dT*dG*dG*e[5mC]*eA*eG)", "22.7 pg"],
  ["ISIS 416850: MOE gapmer, nucleobases 1275 to 1318 of SEQ ID NO: 1 (Table 8) (antisense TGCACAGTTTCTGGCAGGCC; MOE gapmer, wing and gap sizes not given here)", "23.7 pg"],
  ["ISIS 449709: 3-8-3, 4-8-4, 2-10-2, 3-10-3 or 4-10-4 MOE microwalk gapmer (Table 46) (antisense eG*e[5mC]*eA*e[5mC]*dA*dG*dT*dT*dT*d[5mC]*dT*dG*dG*d[5mC]*eA*eG*eG*e[5mC])", "22.3 pg"]
]}
